This listing pairs sequences with measured PBM binding z-score.
- System: LXRa:RXRa (NR concentration 270 nM, RXRa partner concentration 90 nM)
- Protocol Details: PBM binding z-score (relative to random genomic background probes); higher = stronger binding; sequences stand for … in GC…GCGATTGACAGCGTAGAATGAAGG
Parameter: PBM binding z-score

[[record]]
record_sequence = "ATATGTAGTTTAAGGGTCATTCAGGTTGGTTCGC"
target_or_system = "LXRa:RXRa (NR concentration 270 nM, RXRa partner concentration 90 nM)"
reported_measurement = 4.11

[[record]]
record_sequence = "ACTTACGAGTCAACGAGGTTATAGCACGCGTATA"
target_or_system = "LXRa:RXRa (NR concentration 270 nM, RXRa partner concentration 90 nM)"
reported_measurement = 1.12

[[record]]
record_sequence = "TGATTGAGGTTAAAGATCAGGGAACGTGGCGTCG"
target_or_system = "LXRa:RXRa (NR concentration 270 nM, RXRa partner concentration 90 nM)"
reported_measurement = 2.42

[[record]]
record_sequence = "TTACCAAGGTGAGCTGAGGTAGTTGATCCAACTC"
target_or_system = "LXRa:RXRa (NR concentration 270 nM, RXRa partner concentration 90 nM)"
reported_measurement = -0.48

[[record]]
record_sequence = "TAGCCTAAGTCATTGGGCCAGTATAGTACGCATC"
target_or_system = "LXRa:RXRa (NR concentration 270 nM, RXRa partner concentration 90 nM)"
reported_measurement = -0.421

[[record]]
record_sequence = "TCGAGTAGGTTACCAATGGCGCATTCAGCTTTCT"
target_or_system = "LXRa:RXRa (NR concentration 270 nM, RXRa partner concentration 90 nM)"
reported_measurement = 0.571

[[record]]
record_sequence = "TGTCAAAGTTCAAAGGTAACGAAAGTATCCACAC"
target_or_system = "LXRa:RXRa (NR concentration 270 nM, RXRa partner concentration 90 nM)"
reported_measurement = 6.49

[[record]]
record_sequence = "AGAACGAGGGCAATGAGTTGATAGCACGGGTGGC"
target_or_system = "LXRa:RXRa (NR concentration 270 nM, RXRa partner concentration 90 nM)"
reported_measurement = 0.258

[[record]]
record_sequence = "CGAACGAGGGCATGAGTTGCTAGCAAATGCCGAT"
target_or_system = "LXRa:RXRa (NR concentration 270 nM, RXRa partner concentration 90 nM)"
reported_measurement = 0.132

[[record]]
record_sequence = "GCTTGTAGATGAAGGTTAAGAAAGACTAAGCTAA"
target_or_system = "LXRa:RXRa (NR concentration 270 nM, RXRa partner concentration 90 nM)"
reported_measurement = 0.357

[[record]]
record_sequence = "CTCGGAAGGTCGGTTGAGGTGAGTATACGGATAA"
target_or_system = "LXRa:RXRa (NR concentration 270 nM, RXRa partner concentration 90 nM)"
reported_measurement = 0.338

[[record]]
record_sequence = "CCGACAGGGGCAGAAAGGTTACCATACCATCCGG"
target_or_system = "LXRa:RXRa (NR concentration 270 nM, RXRa partner concentration 90 nM)"
reported_measurement = 0.716


---

- System: RARg homodimer (NR concentration 270 nM)
- Protocol Details: PBM binding z-score (relative to random genomic background probes); higher = stronger binding; sequences stand for … in GC…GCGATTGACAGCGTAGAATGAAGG
Parameter: PBM binding z-score

[[record]]
record_sequence = "CGTCCAAGGTAAAAGGTCAGTGAAGAGATGACGG"
parameter = "PBM binding z-score"
reported_measurement = 5.11

[[record]]
record_sequence = "TGAATGAGGTTATAAGAGCAGGGAACGTTGCAAA"
parameter = "PBM binding z-score"
reported_measurement = 0.87

[[record]]
record_sequence = "GCTCGGAGGAGAAGGTCAGAGCTTTGTCCGTAGA"
parameter = "PBM binding z-score"
reported_measurement = 2.28

[[record]]
record_sequence = "TCGAGTAGGTTACCAATGGGGCATCCAGCTTTCT"
parameter = "PBM binding z-score"
reported_measurement = 0.452

[[record]]
record_sequence = "CCTGCTAGGTCAATGGTCAGCCAAAGCAGCTCGC"
parameter = "PBM binding z-score"
reported_measurement = 4.35

[[record]]
record_sequence = "TCTTGTAGATCAGCAGGGTAAGAAAGCTGGCCAA"
parameter = "PBM binding z-score"
reported_measurement = -0.5

[[record]]
record_sequence = "GCTGCTAGGTCAACTGATGGTCAGCTATAGCTCG"
parameter = "PBM binding z-score"
reported_measurement = 5.69

[[record]]
record_sequence = "TGAATGAGGTTATAGGATCAGGGAACGTTGCAAA"
parameter = "PBM binding z-score"
reported_measurement = 0.884

[[record]]
record_sequence = "TCTTGTAGATCAAGCAGTTTAAGAAAGCCTGAGT"
parameter = "PBM binding z-score"
reported_measurement = -0.421

[[record]]
record_sequence = "CAGCCTAGGTCAGAGCCAGTATAGGAGGAACGTT"
parameter = "PBM binding z-score"
reported_measurement = 3.5

[[record]]
record_sequence = "ATATGTAGGTTATCGGATCATTCAGTTTGCGCAT"
parameter = "PBM binding z-score"
reported_measurement = 0.866

[[record]]
record_sequence = "TCATATAGGTAAAAGTGAAAGTCGAACGATATGA"
parameter = "PBM binding z-score"
reported_measurement = 0.384

[[record]]
record_sequence = "CAGCCTCGGTCAGGGCCAGTATAGGAGGAACGTT"
parameter = "PBM binding z-score"
reported_measurement = 1.86

[[record]]
record_sequence = "GGAACGAGGGCATAGTTGATAGCATCTGTCGACG"
parameter = "PBM binding z-score"
reported_measurement = 1.22

[[record]]
record_sequence = "AGAACGCGGGCAATGAGTTGATAGCACGGGTGGC"
parameter = "PBM binding z-score"
reported_measurement = 0.194

[[record]]
record_sequence = "ACTCGCAGGCCAAGTTTGGGTCACTCAAACAAAG"
parameter = "PBM binding z-score"
reported_measurement = 1.73

[[record]]
record_sequence = "ATCGAAAGATCGAAGGTGAGTATACCCACCCGAA"
parameter = "PBM binding z-score"
reported_measurement = 0.489

[[record]]
record_sequence = "GCATATAGGTAATACAAGGTGAAAGTCCGATTGT"
parameter = "PBM binding z-score"
reported_measurement = 0.545

[[record]]
record_sequence = "GCGACTGGGGCAAAGCAGGTTACCATTAGGTTGG"
parameter = "PBM binding z-score"
reported_measurement = 0.722

[[record]]
record_sequence = "ATCGAAAGGTGGAGGTGAGTATAGAGAAAGGGAA"
parameter = "PBM binding z-score"
reported_measurement = 0.711

[[record]]
record_sequence = "CTCGAAAGGTAGGTTGAGGTGAGTATACGGATAA"
parameter = "PBM binding z-score"
reported_measurement = 0.396

[[record]]
record_sequence = "ATCTCTAGGTAAAAGTTCAGGGAATCCCGAGGAT"
parameter = "PBM binding z-score"
reported_measurement = 2.18

[[record]]
record_sequence = "TCTGGTTGGTCACGGAGGTCACACACGACGGGTA"
parameter = "PBM binding z-score"
reported_measurement = 5.28

[[record]]
record_sequence = "TAGCCTAGGTCGTGGGCCAGTATACCACGCGAAC"
parameter = "PBM binding z-score"
reported_measurement = 0.996

[[record]]
record_sequence = "CCTACTGGGCCAAAAGGGTCATTGATGCCGATAA"
parameter = "PBM binding z-score"
reported_measurement = 2.71

[[record]]
record_sequence = "AGTCAAAGTTCAGGCCGAGGTAACGTAAAGCACG"
parameter = "PBM binding z-score"
reported_measurement = 4.99

